target: T1, mouse serum albumin (mouse, UniProt P07724 25-608); experiment: table of affinities (KD); BIACORE on serum albumin-coated chip according to Example 1;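 further: surface plasmon resonance with dAbs flowed over a chip carrying human, rat or mouse serum albumin, blocked uncoated flow cell as reference, KD from on- and off-rate curve fits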
T1 construct: also called MSA
Task for the reader: assign each of the following binders its reported pKd.
Would you please state pKd, meaning minus log10 of the concentration in mol/L, as a bare number?

Need pKd, item DOM7r-8 (other) VL: DIQMTQSPSSLSASVGDRVTITCRASQWIHRQLKWYQQKPGKAPKLLIYYASILQSGVPSRFSGSGSGTDFTLTISSLQPEDFATYYCQQTFSKPSTFGQGTKVEIKR
7.40

How about this binder: DOM7h-8 (other) VL: DIQMTQSPSSLSASVGDRVTITCRASQSISSYLNWYQQKPGKAPKLLIYRNSPLQSGVPSRFSGSGSGTDFTLTISSLQPEDFATYYCQQTYRVPPTFGQGTKVEIKR
6.70

How about this binder: DOM7r-31 (other) VH: EVQLLESGGGLVQPGGSLRLSCTASGFTFRHYRMGWVRQAPGKGLEWVSWIRPDGTFTYYADSVKGRFTISRDNSKNTLYLQMNSLRAEDTAVYYCAKSYMGDRFDYWGQGTLVTVSS
6.00

Data origin, for the record: patent US20090111745A1
